- Test system: HT29 human colorectal adenocarcinoma cell line
- EXPERIMENT: MTT cytotoxicity assay on HT29 cells
- Type: cell-based
- CONDITION DETAILS: Homo sapiens, HT-29, 24 h, 24 h incubation, 5 to 600 µM, mean ± SEM of six experiments
ATTRIBUTE MEASURED: pIC50
Kindly note that pIC50 refers to -log10 of the concentration in mol/L and answer with the value alone.

Illustrative cases are given below, each with its answer.
COP(=O)(OC)C(NCc1ccccc1)c1ccc2ccc3cccc4ccc1c2c34 (stereo not shown) [Compound 3Aa] = 4.53
COP(=O)(OC)C(Nc1cccc(C)c1)c1ccc2ccc3cccc4ccc1c2c34 (stereo not shown) [Compound 3Ai] = 4.24
COP(=O)(OC)C(Nc1ccccc1)c1ccc2ccc3cccc4ccc1c2c34 (stereo not shown) [Compound 3Ab] = 3.98

Output reported pIC50 of the molecule COP(=O)(OC)C(Nc1ccc(C)cc1)c1ccc2ccc3cccc4ccc1c2c34 (stereo not shown) [Compound 3Ac] on HT29 human colorectal adenocarcinoma cell line. 4.80

Output reported pIC50 of the molecule COP(=O)(OC)C(O)c1ccc2ccc3cccc4ccc1c2c34 (stereo not shown) [Compound 5A] on HT29 human colorectal adenocarcinoma cell line. 4.59
